Reference source for all entries: patent US20240270826A1

target: Human SARS-CoV-2_Wuhan S (SmT1) (SARS-CoV-2 (Wuhan), UniProt P0DTC2 14-1208); assay: flow cytometry SVNA, VHH-Fc vs biotin-S binding to Vero E6 ACE2
Recorded Imax % for the following binders

Binder | Imax %
NRCoV2-SR02 VHH-Fc (Fc fusion, bivalent VHH-Fc) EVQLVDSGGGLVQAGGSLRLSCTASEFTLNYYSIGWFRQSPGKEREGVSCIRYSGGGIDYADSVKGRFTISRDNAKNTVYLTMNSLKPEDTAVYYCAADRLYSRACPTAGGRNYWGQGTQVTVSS | 53%
NRCoV2-1d VHH-Fc (Fc fusion, bivalent VHH-Fc) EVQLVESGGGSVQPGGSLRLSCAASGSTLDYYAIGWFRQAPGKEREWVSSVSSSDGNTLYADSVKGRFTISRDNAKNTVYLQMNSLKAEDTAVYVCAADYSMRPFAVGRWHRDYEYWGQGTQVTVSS | 89%
NRCoV2-10 VHH-Fc (Fc fusion, bivalent VHH-Fc) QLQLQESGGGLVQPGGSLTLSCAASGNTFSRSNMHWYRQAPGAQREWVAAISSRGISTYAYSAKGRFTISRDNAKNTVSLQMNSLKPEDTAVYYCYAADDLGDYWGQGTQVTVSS | 91%
NRCoV2-18 VHH-Fc (Fc fusion, bivalent VHH-Fc) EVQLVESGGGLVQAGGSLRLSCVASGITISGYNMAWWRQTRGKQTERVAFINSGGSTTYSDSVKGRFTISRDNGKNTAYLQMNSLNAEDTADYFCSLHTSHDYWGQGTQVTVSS | 90%
NRCoV2-11a VHH-Fc (Fc fusion, bivalent VHH-Fc) EVQLQQSGGGLVQPGGSLRLSCAASGFTLDSYNIAWFRQAPGKEREWISYISRYYESTYYSDSVKGRFTTSRDGDKKTVSLQMNSLKSEDTAVYYCAARSRDFSSPISATDKYGSWGQGTQVTVSS | 46%
NRCoV2-MRed04 VHH-Fc (Fc fusion, bivalent VHH-Fc) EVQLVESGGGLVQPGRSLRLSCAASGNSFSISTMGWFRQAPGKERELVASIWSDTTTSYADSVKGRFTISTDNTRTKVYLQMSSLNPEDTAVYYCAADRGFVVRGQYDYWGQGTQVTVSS | 73%
NRCoV2-07 VHH-Fc (Fc fusion, bivalent VHH-Fc) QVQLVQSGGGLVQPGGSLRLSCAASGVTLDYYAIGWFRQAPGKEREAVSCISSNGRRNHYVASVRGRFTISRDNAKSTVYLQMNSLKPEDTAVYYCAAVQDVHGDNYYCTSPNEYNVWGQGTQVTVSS | 89%
NRCoV2-15 VHH-Fc (Fc fusion, bivalent VHH-Fc) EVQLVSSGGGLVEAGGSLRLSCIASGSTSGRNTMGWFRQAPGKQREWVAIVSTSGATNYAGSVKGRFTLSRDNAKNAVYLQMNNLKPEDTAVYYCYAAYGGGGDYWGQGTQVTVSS | 95%
NRCoV2-02 VHH-Fc (Fc fusion, bivalent VHH-Fc) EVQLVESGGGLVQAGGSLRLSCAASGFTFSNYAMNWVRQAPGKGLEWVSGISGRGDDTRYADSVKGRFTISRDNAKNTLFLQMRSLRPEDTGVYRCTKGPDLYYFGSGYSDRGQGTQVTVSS | 94%
NRCoV2-04 VHH-Fc (Fc fusion, bivalent VHH-Fc) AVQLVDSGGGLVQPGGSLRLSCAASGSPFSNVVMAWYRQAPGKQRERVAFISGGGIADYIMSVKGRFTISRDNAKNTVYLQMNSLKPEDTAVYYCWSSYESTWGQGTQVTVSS | 51%
NRCoV2-05 VHH-Fc (Fc fusion, bivalent VHH-Fc) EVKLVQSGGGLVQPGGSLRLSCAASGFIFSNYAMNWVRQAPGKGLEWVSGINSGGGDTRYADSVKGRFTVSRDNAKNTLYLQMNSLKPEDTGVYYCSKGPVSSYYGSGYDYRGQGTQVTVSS | 95%
NRCoV2-12 VHH-Fc (Fc fusion, bivalent VHH-Fc) EVQLQQSGGGLVQAGGSLRLSCAASGRTFRNYVMGWFRQAPQAPGKDHEFVAAISWGGTEIYYADSVKGRFTISRDNAKNTVYLQMNSLKPEDTAVYYCAADRGLSYYYTRTTEYNYWGQGTQVTVSS | 90%
NRCoV2-SR13 VHH-Fc (Fc fusion, bivalent VHH-Fc) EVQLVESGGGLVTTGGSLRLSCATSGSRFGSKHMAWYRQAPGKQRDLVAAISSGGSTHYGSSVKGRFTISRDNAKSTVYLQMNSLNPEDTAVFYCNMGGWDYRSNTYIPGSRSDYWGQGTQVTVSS | 82%
NRCoV2-14 VHH-Fc (Fc fusion, bivalent VHH-Fc) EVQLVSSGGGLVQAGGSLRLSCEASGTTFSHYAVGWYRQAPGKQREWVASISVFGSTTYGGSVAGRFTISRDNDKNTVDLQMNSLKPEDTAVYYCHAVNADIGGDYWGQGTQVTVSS | 83%
